Let's look at some molecules and their measured IC50.
biological target: Neuraminidase (Influenza A virus, UniProt B4URF0); assay: Inhibition of Influenza A H9N2 virus neuraminidase activity after 2 hrs by spectrofluorometry
Answer format: numeric, µM implied, no suffix.

Inquiry: I'd like to know its IC50. The molecule in question is C=CC(C)(C)c1cc(/C=C/C(=O)c2ccc(O)cc2)c(OC)cc1O
Reply text: 53.1

====

molecular target: UniProt B4URF0; experiment: Inhibition of Influenza A H1N1 virus neuraminidase activity after 2 hrs by spectrofluorometry
Each item that follows carries a reported pIC50.
Reminder that pIC50 means the negative base-10 logarithm of the concentration expressed in mol/L.

Recorded results for 6 molecules are shown here.
# MOLECULE, PARAMETER, RECORDED_MEASUREMENT
rows = [
    ("CC(C)=CCc1cc(/C=C/C(=O)c2ccc(O)cc2O)ccc1O [LICOAGROCHALCONE A]", "pIC50", 3.80),
    ("C=CC(C)(C)c1cc(/C=C/C(=O)c2ccc(O)cc2)c(OC)cc1O [LICOAGROCHACONE A]", "pIC50", 4.25),
    ("COc1c(/C=C/C(=O)c2ccc(O)c(CC=C(C)C)c2)ccc(O)c1O [LICOCHALCONE D]", "pIC50", 4.09),
    ("COc1cc(O)ccc1/C=C/C(=O)c1ccc(O)cc1 [ECHINATIN]", "pIC50", 4.67),
    ("C=CC(C)(C)c1cc(/C=C/C(=O)c2ccc(O)cc2O)c(OC)cc1O [LICOCHALCONE G]", "pIC50", 3.97),
    ("CC(C)=CCc1cc(/C=C/C(=O)c2ccc(O)cc2O)cc(O)c1O [5'-PRENYLBUTEIN]", "pIC50", 4.12),
]

The record that follows has no pIC50 shown yet.
Inquiry: What value of pIC50 has been reported for the following molecule? CC(C)=CCc1cc(/C=C/C(=O)c2ccc(O)c(CC=C(C)C)c2O)ccc1O [KANZONOL C]
Reply text: 3.72

====

// pIC50 lookup, one value per entry
target: Sialidase (Clostridium perfringens)
# pIC50: negative log10 of molar concentration; output just the value

Known results for compounds:
# MOL_SMILES, RECORDED_MEASUREMENT
rows = [
    ("CC(C)=CCc1cc(/C=C/C(=O)c2ccc(O)cc2O)ccc1O", 5.80),
    ("CC(C)=CCc1cc(/C=C/C(=O)c2ccc(O)cc2O)cc(O)c1O", 5.03),
    ("COc1c(/C=C/C(=O)c2ccc(O)c(CC=C(C)C)c2)ccc(O)c1O", 5.48),
]

Then this compound:
Inquiry: Give recorded pIC50 with Sialidase (Clostridium perfringens) for the following compound: C=CC(C)(C)c1cc(/C=C/C(=O)c2ccc(O)cc2)c(OC)cc1O
Reply text: 4.69

====

# IC50 values compiled below
molecular target: UniProt B4URF0; test: Noncompetitive inhibition of Influenza A H1N1 virus neuraminidase activity by Lineweaver-Burk plot analysis
Answer format reminder: number followed by unit.

Solved cases below.
# MOL_SMILES, TARGET_OR_SYSTEM, PARAMETER, RECORDED_MEASUREMENT
data = [
    ("CC(C)=CCc1cc(/C=C/C(=O)c2ccc(O)cc2O)ccc1O", "UniProt B4URF0", "IC50", "185 µM"),
    ("CC(C)=CCc1cc(/C=C/C(=O)c2ccc(O)c(CC=C(C)C)c2O)ccc1O", "UniProt B4URF0", "IC50", "212 µM"),
    ("C=CC(C)(C)c1cc(/C=C/C(=O)c2ccc(O)cc2)c(OC)cc1O", "UniProt B4URF0", "IC50", "53.9 µM"),
    ("C=CC(C)(C)c1cc(/C=C/C(=O)c2ccc(O)cc2O)c(OC)cc1O", "UniProt B4URF0", "IC50", "117 µM"),
    ("COc1c(/C=C/C(=O)c2ccc(O)c(CC=C(C)C)c2)ccc(O)c1O", "UniProt B4URF0", "IC50", "103 µM"),
]

Inquiry: Any idea what its IC50 is? The compound is COc1cc(O)ccc1/C=C/C(=O)c1ccc(O)cc1
Reply text: 30.4 µM

Inquiry: Consider the compound CC(C)=CCc1cc(/C=C/C(=O)c2ccc(O)cc2O)cc(O)c1O and give its measured IC50.
Reply text: 96.3 µM

====

Form: system (Sialidase (Clostridium perfringens, UniProt P10481)), quantity (IC50), values below.
Record the value in nM, omitting the unit from your answer.

Below, 2 molecules whose answers are already recorded.
# MOLECULE, DISPLAY_UNIT, IC50
rows = [
    ("CC(C)=CCc1cc(/C=C/C(=O)c2ccc(O)c(CC=C(C)C)c2O)ccc1O [KANZONOL C]", "nM", 1120),
    ("C=CC(C)(C)c1cc(/C=C/C(=O)c2ccc(O)cc2O)c(OC)cc1O [LICOCHALCONE G]", "nM", 2370),
]

With those in mind, consider the next molecule.
Inquiry: Given the entry O=C(/C=C/c1ccc(O)cc1)c1ccc(O)cc1O [ISOLIQUIRITIGENIN] , report its measured IC50.
Reply text: 44000

====

molecular target: Neuraminidase (Influenza A virus, UniProt B4URF0); assay: Inhibition of Influenza A H9N2 virus neuraminidase activity after 2 hrs by spectrofluorometry
Simple rule here: IC50 less than 100 µM is YES, otherwise NO.

Recorded results for 3 compounds are shown here.
# COMPOUND, TARGET_OR_SYSTEM, CATEGORY
rows = [
    ("COc1cc(O)ccc1/C=C/C(=O)c1ccc(O)cc1 [ECHINATIN]", "Neuraminidase (Influenza A virus, UniProt B4URF0)", "YES"),
    ("CC(C)=CCc1cc(/C=C/C(=O)c2ccc(O)c(CC=C(C)C)c2O)ccc1O [KANZONOL C]", "Neuraminidase (Influenza A virus, UniProt B4URF0)", "NO"),
    ("CC(C)=CCc1cc(/C=C/C(=O)c2ccc(O)cc2O)cc(O)c1O [5'-PRENYLBUTEIN]", "Neuraminidase (Influenza A virus, UniProt B4URF0)", "NO"),
]

Inquiry: Hi there! Is IC50 for CC(C)=CCc1cc(/C=C/C(=O)c2ccc(O)cc2O)ccc1O [LICOAGROCHALCONE A] below 100 µM, do you know?
Reply text: NO

Inquiry: Does this compound meet the criterion IC50 < 100 µM? C=CC(C)(C)c1cc(/C=C/C(=O)c2ccc(O)cc2O)c(OC)cc1O [LICOCHALCONE G]
Reply text: NO
